# credit: ChEMBL document CHEMBL3351497

target: Integrin alpha-V/beta-6 (Homo sapiens, UniProt P06756+P18564); test: Inhibition of integrin alphavbeta6 (unknown origin)-mediated K562 cell adhesion to LAPb1 coated surface by fluorescence analysis; type: cell-based
Sequence (P06756 31-889 limits assumed): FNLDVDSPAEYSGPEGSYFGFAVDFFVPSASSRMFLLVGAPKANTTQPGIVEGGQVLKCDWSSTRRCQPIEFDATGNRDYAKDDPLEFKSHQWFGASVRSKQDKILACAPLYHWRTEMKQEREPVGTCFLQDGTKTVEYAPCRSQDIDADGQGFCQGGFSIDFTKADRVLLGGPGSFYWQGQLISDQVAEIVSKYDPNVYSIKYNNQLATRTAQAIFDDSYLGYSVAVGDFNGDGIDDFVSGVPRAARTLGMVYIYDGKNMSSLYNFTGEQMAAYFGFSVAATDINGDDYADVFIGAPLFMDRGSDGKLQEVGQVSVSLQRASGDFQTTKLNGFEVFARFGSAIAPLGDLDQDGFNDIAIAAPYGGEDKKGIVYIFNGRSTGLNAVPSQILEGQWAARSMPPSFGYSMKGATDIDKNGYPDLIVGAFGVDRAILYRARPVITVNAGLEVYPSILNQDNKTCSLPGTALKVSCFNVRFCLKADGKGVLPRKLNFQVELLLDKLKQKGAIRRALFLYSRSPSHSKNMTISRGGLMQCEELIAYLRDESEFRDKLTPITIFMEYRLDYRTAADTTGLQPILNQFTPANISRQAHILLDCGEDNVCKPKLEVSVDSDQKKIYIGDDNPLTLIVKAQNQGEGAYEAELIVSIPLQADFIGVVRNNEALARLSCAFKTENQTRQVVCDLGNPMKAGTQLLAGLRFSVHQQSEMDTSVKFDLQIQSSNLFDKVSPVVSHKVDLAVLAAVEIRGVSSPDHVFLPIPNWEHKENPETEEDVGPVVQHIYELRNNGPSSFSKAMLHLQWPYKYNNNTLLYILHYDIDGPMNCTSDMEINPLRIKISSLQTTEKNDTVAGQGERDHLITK
Sequence (P06756 891-1048 limits assumed): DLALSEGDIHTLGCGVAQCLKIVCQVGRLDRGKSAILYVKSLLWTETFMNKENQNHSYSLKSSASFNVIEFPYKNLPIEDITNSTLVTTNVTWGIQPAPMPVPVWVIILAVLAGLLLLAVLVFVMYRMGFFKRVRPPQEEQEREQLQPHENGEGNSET
Sequence (P18564 22-788 limits assumed): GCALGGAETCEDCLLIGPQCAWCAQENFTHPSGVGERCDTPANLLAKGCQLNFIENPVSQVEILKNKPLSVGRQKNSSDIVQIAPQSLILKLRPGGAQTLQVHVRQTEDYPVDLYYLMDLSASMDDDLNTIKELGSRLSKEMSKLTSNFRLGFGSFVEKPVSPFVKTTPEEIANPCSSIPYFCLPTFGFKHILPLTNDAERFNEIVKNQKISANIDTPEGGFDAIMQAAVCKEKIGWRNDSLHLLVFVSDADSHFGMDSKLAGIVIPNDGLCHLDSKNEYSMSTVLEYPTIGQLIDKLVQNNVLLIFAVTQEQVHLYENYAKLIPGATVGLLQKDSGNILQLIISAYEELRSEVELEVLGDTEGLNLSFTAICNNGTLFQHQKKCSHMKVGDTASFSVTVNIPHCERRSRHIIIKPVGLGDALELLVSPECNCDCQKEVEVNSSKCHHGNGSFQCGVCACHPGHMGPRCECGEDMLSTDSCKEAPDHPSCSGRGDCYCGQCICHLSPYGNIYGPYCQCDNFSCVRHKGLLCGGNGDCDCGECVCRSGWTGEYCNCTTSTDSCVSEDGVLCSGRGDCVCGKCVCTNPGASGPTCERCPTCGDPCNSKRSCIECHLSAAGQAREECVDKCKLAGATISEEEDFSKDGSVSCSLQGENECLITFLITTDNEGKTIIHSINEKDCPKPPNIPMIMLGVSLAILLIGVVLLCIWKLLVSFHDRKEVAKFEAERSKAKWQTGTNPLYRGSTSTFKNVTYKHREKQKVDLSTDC
Consider the following compounds; for each one, report its pIC50.
# pIC50 = -log10(concentration in molar units)

Data request: For Integrin alpha-V/beta-6 (Homo sapiens, UniProt P06756+P18564), give pIC50 of the listed compound: COc1cccc(C(CC(=O)O)NC(=O)CCCCc2ccc3c(n2)NCCC3)c1 (racemic)
Data returned: 6.50

Data request: For Integrin alpha-V/beta-6 (Homo sapiens, UniProt P06756+P18564), give pIC50 of the listed compound: Cc1cccc(C(CC(=O)O)NC(=O)CCCCc2ccc3c(n2)NCCC3)c1 (racemic)
Data returned: 6.40

Data request: For Integrin alpha-V/beta-6 (Homo sapiens, UniProt P06756+P18564), give pIC50 of the listed compound: O=C(O)CC(NC(=O)CCCCc1ccc2c(n1)NCCC2)c1cc(Cl)cc(Cl)c1 (racemic)
Data returned: 6.60

Data request: For Integrin alpha-V/beta-6 (Homo sapiens, UniProt P06756+P18564), give pIC50 of the listed compound: O=C(O)CC(NC(=O)CCCCc1ccc2c(n1)NCCC2)c1cccc(C(F)(F)F)c1 (racemic)
Data returned: 7.00

Data request: For Integrin alpha-V/beta-6 (Homo sapiens, UniProt P06756+P18564), give pIC50 of the listed compound: COc1ccc(C(CC(=O)O)NC(=O)CCCCc2ccc3c(n2)NCCC3)cc1OC (racemic)
Data returned: 6.50

Data request: For Integrin alpha-V/beta-6 (Homo sapiens, UniProt P06756+P18564), give pIC50 of the listed compound: O=C(O)C[C@@H](NC(=O)CCCCc1ccc2c(n1)NCCC2)c1cccc(C(F)(F)F)c1
Data returned: 5.20

Data request: For Integrin alpha-V/beta-6 (Homo sapiens, UniProt P06756+P18564), give pIC50 of the listed compound: Cc1cc(C)cc(C(CC(=O)O)NC(=O)CCCCc2ccc3c(n2)NCCC3)c1 (racemic)
Data returned: 6.30

Data request: For Integrin alpha-V/beta-6 (Homo sapiens, UniProt P06756+P18564), give pIC50 of the listed compound: O=C(O)CC(NC(=O)CCCCc1ccc2c(n1)NCCC2)c1ccc(Cl)cc1 (racemic)
Data returned: 6.40

Data request: For Integrin alpha-V/beta-6 (Homo sapiens, UniProt P06756+P18564), give pIC50 of the listed compound: COc1ccc(C(CC(=O)O)NC(=O)CCCCc2ccc3c(n2)NCCC3)cc1 (racemic)
Data returned: 6.30

* * *

Consider the following compounds; for each one, report its Ratio IC50.
test system: K562; test: Selectivity ratio of IC50 for integrin alphavbeta6 (unknown origin)-mediated K562 cell adhesion to LAPb1 coated surface to IC50 for integrin alphavbeta3 (unknown origin)-mediated K562 cell adhesion to LAPb1 coated surface; assay type: cell-based; conditions: Homo sapiens
I only need the number, thanks.

Data request: Report Ratio IC50, nothing else, for this compound: O=C(O)CC(NC(=O)CCCCc1ccc2c(n1)NCCC2)c1ccccc1 (racemic)
Data returned: 10

Data request: Report Ratio IC50, nothing else, for this compound: COc1ccc(C(CC(=O)O)NC(=O)CCCCc2ccc3c(n2)NCCC3)cc1 (racemic)
Data returned: 10

Data request: Report Ratio IC50, nothing else, for this compound: O=C(O)CC(NC(=O)CCCCc1ccc2c(n1)NCCC2)c1cccc(F)c1 (racemic)
Data returned: 10

Data request: Report Ratio IC50, nothing else, for this compound: COc1cccc(C(CC(=O)O)NC(=O)CCCCc2ccc3c(n2)NCCC3)c1 (racemic)
Data returned: 10
